- Tested on: Ser. marcescens ES-75
- Experiment: Anti-bacterial activity (MIC), agar dilution
- Assay type: cell-based
- Measurement Parameters: Serratia marcescens, ES75, 18 h, Ser. marcescens ES-75; agar dilution, about 10^6 CFU/ml, 18 hours, 37° C.; read-out: MIC

- Compound: "NC(=O)NCC[N+]1(C/C=C/C2=C(C(=O)[O-])N3C(=O)[C@@H](NC(=O)/C(=N\\OCF)c4nsc(N)n4)[C@H]3SC2)CCN(C(N)=O)CC1"
  MIC: "0.05 µg/mL"
- Compound: "NC(=O)C[N+]1(C/C=C/C2=C(C(=O)[O-])N3C(=O)[C@@H](NC(=O)/C(=N\\OCF)c4nsc(N)n4)[C@H]3SC2)CCOCC1"
  MIC: "0.1 µg/mL"
- Compound: "N#CCO/N=C(\\C(=O)N[C@@H]1C(=O)N2C(C(=O)[O-])=C(/C=C/C[n+]3ccc(C(N)=O)cc3)CS[C@H]12)c1nsc(N)n1"
  MIC: "0.1 µg/mL"
- Compound: "C[N+](C)(C/C=C/C1=C(C(=O)[O-])N2C(=O)[C@@H](NC(=O)/C(=N\\OCF)c3nsc(N)n3)[C@H]2SC1)Cc1ccn[nH]1"
  MIC: "0.05 µg/mL"
- Compound: "C[N+](C)(C/C=C/C1=C(C(=O)[O-])N2C(=O)[C@@H](NC(=O)/C(=N\\OCC#N)c3nsc(N)n3)[C@H]2SC1)Cc1nnco1"
  MIC: "0.1 µg/mL"
- Compound: "CC[N+](C)(CC#N)C/C=C/C1=C(C(=O)[O-])N2C(=O)[C@@H](NC(=O)/C(=N\\OCF)c3nsc(N)n3)[C@H]2SC1 (stereo partly drawn)"
  MIC: "0.1 µg/mL"

Data credit: patent US4921850A
